experiment: A549 cell viability effects, profiling panel, calcein-AM fluorescence, 48 h, basal (AID 1162); settings: higher = more signal; also: test concentration not given here
Could you please report measured z-score for the items listed next?
Lab note: write the figure by itself, no unit.

Given the molecule CCOC(=O)C[C@H]1[C@H](OC(=O)c2ccc(-c3ccccc3)cc2)[C@@H](NC(=O)Cc2ccc(OC)cc2)c2cc(OCCCO)ccc2N1C(=O)c1ccccc1 , what is its reported z-score?
-0.137

Would you kindly repeat that for CCOC(=O)C1=CC[C@@H](c2ccccc2)N(S(=O)(=O)c2ccc(C)cc2)[C@H]1c1ccccc1C ?
-1.42

Would you kindly repeat that for COc1cc(NN2C(C(O)c3ccco3)C=CC3C(=O)N(c4ccccc4)C(=O)C32)cc(OC)c1OC (centres undefined) ?
-0.5

Would you kindly repeat that for COc1ccc([C@H]2OC[C@@H]3C[C@@H](Cc4ccccc4)C(=O)N32)cc1 ?
-0.706

###

tested on: Wnt5a (protein binding on small-molecule microarray); assay: Wnt5a binders on small-molecule microarray, primary screen, biophysical, 635/667 nm fluorescence (AID 1142); conditions: 635 nm fluorescence, higher = more signal;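 also: fluorescence read at 667 nm with signal to noise per printed feature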
Binary classification by composite z-score, with 0.4 as an inclusive lower bound for condition met; all other cases are condition not met.

Is it the case that COCCCNC(=O)[C@]1(CCC(=O)OC(C)(C)C)N=C(c2ccc(OCCCO)cc2)O[C@@H]1c1ccccc1CN=[N+]=[N-] has composite z-score reaching or exceeding 0.4?
condition not met

Would you kindly repeat that for NC(=O)NCC#Cc1ccc2c(c1)[C@]1(C(=O)N2)[C@H](c2ccc(O)cc2)N2[C@H](c3ccccc3)[C@H](c3ccccc3)OC(=O)[C@H]2[C@@H]1C(=O)O ?
condition not met

Would you kindly repeat that for C=CCOC(=O)[C@@H]1[C@H]2C(=O)O[C@H](c3ccccc3)[C@H](c3ccccc3)N2[C@H](c2ccc(OCCOC(=O)[C@H]3C[C@H]4C(=O)N5CCC[C@H]5C(=O)N4[C@H]3c3ccc(O)cc3)cc2)[C@@]12C(=O)Nc1ccc(I)cc12 ?
condition not met

Would you kindly repeat that for COC(=O)c1c(CC[C@@H](CO)NC(=O)NCCn2cc(C3(O)CCCC3)nn2)oc(C(C)=O)c1C(=O)OC ?
condition not met

Would you kindly repeat that for COc1ccc(C#Cc2ccc3c(c2)[C@]2(C(=O)N3)[C@H](c3ccccc3OCCO)N3[C@H](c4ccccc4)[C@H](c4ccccc4)OC(=O)[C@H]3[C@@H]2C(=O)Nc2nc3ccccc3s2)cc1 ?
condition met

Would you kindly repeat that for NC(=O)NCC#Cc1ccc2c(c1)[C@]1(C(=O)N2)[C@H](C(=O)Nc2nc3ccccc3s2)[C@H]2C(=O)O[C@H](c3ccccc3)[C@H](c3ccccc3)N2[C@@H]1c1ccccc1OCCO ?
condition met

Would you kindly repeat that for CCOC(=O)C[C@H]1[C@H](OC(=O)c2ccc(C(=O)c3ccccc3)cc2)[C@@H](NC(=O)c2ccc3ccccc3n2)c2cc(OCCCO)ccc2N1C(=O)c1ccccc1 ?
condition not met

Would you kindly repeat that for COC(=O)[C@H](Cc1ccccc1)N1CC2=C[C@@H](C3CC3)n3c(=O)n(C)c(=O)n3[C@H]2[C@@H]1[C@@H](O)Cc1ccccc1 ?
condition not met

Would you kindly repeat that for C=CCNC(=O)[C@@H]1[C@H]2C(=O)O[C@H](c3ccccc3)[C@H](c3ccccc3)N2[C@H](c2ccc(O)cc2)[C@@]12C(=O)N(C(=O)OCCOC)c1ccc(C#CCNC(N)=O)cc12 ?
condition met

Would you kindly repeat that for COCCOC(=O)N1C(=O)[C@@]2(c3cc(C#CCCO)ccc31)[C@H](C(=O)N1CCCCCCC1)[C@H]1C(=O)O[C@H](c3ccccc3)[C@H](c3ccccc3)N1[C@@H]2c1ccc(OCCO)cc1 ?
condition met

Would you kindly repeat that for C=C(CC1([C@@H](NP(=O)(c2ccccc2)c2ccccc2)[C@H]2C[C@@H]2CCCC)CC1)c1ccccc1 ?
condition met

Would you kindly repeat that for CCOC(=O)C[C@H]1[C@H](OC(=O)c2ccc(C(=O)c3ccccc3)cc2)[C@@H](NC(=O)c2ccc3ccccc3c2)c2cc(OCCCO)ccc2N1C(=O)Cc1ccc(OC)cc1 ?
condition not met
